- Tested on: Aspergillus flavus
- Method summary: Antifungal activity against Aspergillus flavus TCC MYA3631 after 48 hrs by two fold serial dilution method
- Format: functional
- Condition info: TCC MYA3631, 48 h
Recorded MIC, one value per entry.

{"Compound": "COc1c(OCC(O)CNC(=N)N)cc2oc3cc(OCC(O)CNC(=N)N)c(CC=C(C)C)c(O)c3c(=O)c2c1CC=C(C)C (centres undefined)", "Endpoint unit": "mg/L", "Censoring operator": "=", "MIC": 6.25}
{"Compound": "CC[C@H](C)C[C@H](C)CCCCCCCCC(=O)N[C@H]1C[C@@H](O)[C@@H](NCCN)NC(=O)[C@@H]2[C@@H](O)CCN2C(=O)[C@H]([C@H](O)CCN)NC(=O)[C@H]([C@H](O)[C@@H](O)c2ccc(O)cc2)NC(=O)[C@@H]2C[C@@H](O)CN2C(=O)[C@H]([C@@H](C)O)NC1=O", "Endpoint unit": "mg/L", "Censoring operator": ">", "MIC": 50}
{"Compound": "C[C@@H]1C/C=C/C=C/C=C/C=C/[C@H](O[C@@H]2O[C@H](C)[C@@H](O)[C@H](N)[C@@H]2O)C[C@@H]2O[C@](O)(C[C@@H](O)C[C@H]3O[C@@H]3/C=C/C(=O)O1)C[C@H](O)[C@H]2C(=O)O", "Endpoint unit": "mg/L", "Censoring operator": ">", "MIC": 50}
{"Compound": "CCCCN(CCCC)CC(O)COc1cc2oc3cc(OCC(O)CN(CCCC)CCCC)c(OC)c(CC=C(C)C)c3c(=O)c2c(O)c1CC=C(C)C (centres undefined)", "Endpoint unit": "mg/L", "Censoring operator": "=", "MIC": 12.5}
